- test-target: T1, Hrq1 (Saccharomyces cerevisiae, UniProt Q05549 1-1077)
- T1 sequence: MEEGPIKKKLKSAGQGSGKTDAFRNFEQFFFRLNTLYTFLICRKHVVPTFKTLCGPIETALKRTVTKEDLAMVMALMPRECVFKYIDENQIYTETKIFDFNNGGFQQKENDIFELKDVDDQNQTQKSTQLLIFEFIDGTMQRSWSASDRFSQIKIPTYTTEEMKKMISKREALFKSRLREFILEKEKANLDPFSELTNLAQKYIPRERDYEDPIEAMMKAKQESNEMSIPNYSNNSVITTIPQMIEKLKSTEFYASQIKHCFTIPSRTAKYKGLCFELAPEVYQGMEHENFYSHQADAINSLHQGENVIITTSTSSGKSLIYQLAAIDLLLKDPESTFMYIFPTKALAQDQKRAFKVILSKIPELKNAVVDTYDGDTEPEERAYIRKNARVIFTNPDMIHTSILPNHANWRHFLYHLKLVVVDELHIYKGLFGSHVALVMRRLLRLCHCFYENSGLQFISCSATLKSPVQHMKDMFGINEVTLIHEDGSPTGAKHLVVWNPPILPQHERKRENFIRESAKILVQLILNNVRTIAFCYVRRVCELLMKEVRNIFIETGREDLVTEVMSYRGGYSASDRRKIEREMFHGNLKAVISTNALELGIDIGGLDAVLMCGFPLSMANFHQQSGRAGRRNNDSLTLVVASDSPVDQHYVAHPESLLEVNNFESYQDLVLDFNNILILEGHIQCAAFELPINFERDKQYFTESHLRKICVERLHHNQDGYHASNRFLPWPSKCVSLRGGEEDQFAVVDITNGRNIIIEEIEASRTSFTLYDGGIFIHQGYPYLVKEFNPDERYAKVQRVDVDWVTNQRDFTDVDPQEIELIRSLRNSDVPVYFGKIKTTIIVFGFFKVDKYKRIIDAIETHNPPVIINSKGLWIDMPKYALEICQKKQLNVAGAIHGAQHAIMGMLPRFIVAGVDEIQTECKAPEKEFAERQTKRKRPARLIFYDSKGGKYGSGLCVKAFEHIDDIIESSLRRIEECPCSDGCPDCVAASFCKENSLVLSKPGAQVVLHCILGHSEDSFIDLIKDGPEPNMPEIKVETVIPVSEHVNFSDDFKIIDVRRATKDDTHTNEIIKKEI
- measurement-notes: EMSA
value-type: Kd (nM)
Write it as a number; the unit nM goes unstated.

Entry G4 (structured_DNA) DNA: AAAGGGGGAGCTGGGGTAGATGGGAATGTGAGGGCAACAGGTGAGTCAACGTGTTGCCA , Kd reported as 17.6

Entry 5' tail (dsDNA) DNA 1: ACCGTTGTGCAACTGAGTGGACAACGTGTCACTCACATAGCGTTC DNA 2: GAACGCTATGTGAGTGACAC , Kd reported as 154

Entry Yeast Tel Fork (Poly(TG1-3) Fork) (dsDNA) DNA 1: GGTGTGGTGTGGGTGTGGTGTGGGTGTGTCACTCACATAGCGTTC DNA 2: GAACGCTATGTGAGTGACACTGGGTGTGGTGTGGGTGTGGTGTGG , Kd reported as 3.5

Entry Poly(dT) Fork (dsDNA) DNA 1: TTTTTTTTTTTTTTTTTTTTTTTTTGTGTCACTCACATAGCGTTC DNA 2: GAACGCTATGTGAGTGACACTTTTTTTTTTTTTTTTTTTTTTTTT , Kd reported as 6.5
